system: KM12; experiment: Growth inhibition of human KM12 cells at 10 uM after 48 hrs by coulter counting; type: functional; conditions: KM12, 48 h, read-out: GI

| compound | target.under.test | inhibition of growth at 10 µM |
| --- | --- | --- |
| COc1ccc(/C=C2\CCCC3=C2N=C2SC=CN2C3c2ccc(OC)cc2)cc1 (stereo not drawn) | KM12 | > 10% |
| CCN1CC2=C(N=C3SC=C(C)N3C2c2cccs2)/C(=C/c2cccs2)C1 (stereo not drawn) | KM12 | > 10% |
| CCN1CC2=C(N=C3SC=CN3C2c2cccs2)/C(=C/c2cccs2)C1 (stereo not drawn) | KM12 | > 10% |

###

test system: TK-10; assay: Growth inhibition of human TK10 cells at 10 uM after 48 hrs by coulter counting; format: functional; settings: TK-10, 48 h, read-out: GI
Each entry below lists one item and its recorded inhibition of growth at 10 µM value.
measured.property: inhibition of growth at 10 µM (%)

| molecule | target.under.test | quantity.unit | result.modifier | experimental.result |
| --- | --- | --- | --- | --- |
| CCN1CC2=C(N=C3SC=C(C)N3C2c2ccc(OC)cc2)/C(=C/c2ccc(OC)cc2)C1 (stereo unspecified) | TK-10 | % | > | 10 |
| CCN1CC2=C(N=C3SC=CN3C2c2ccc(OC)c(OC)c2)/C(=C/c2ccc(OC)c(OC)c2)C1 (stereo unspecified) | TK-10 | % | = | 46.5 |
| CCN1CC2=C(N=C3SC=C(C)N3C2c2cccs2)/C(=C/c2cccs2)C1 (stereo unspecified) | TK-10 | % | > | 10 |
| CCN1CC2=C(N=C3SC=CN3C2c2ccc(OC)cc2)/C(=C/c2ccc(OC)cc2)C1 (stereo unspecified) | TK-10 | % | = | 70 |
| CCN1CC2=C(N=C3SC=CN3C2c2cccs2)/C(=C/c2cccs2)C1 (stereo unspecified) | TK-10 | % | > | 10 |
| CCN1CC2=C(N=C3SC=C(C)N3C2c2ccc(OC)c(OC)c2)/C(=C/c2ccc(OC)c(OC)c2)C1 (stereo unspecified) | TK-10 | % | = | 98.8 |

###

test system: RPMI-8226; assay: Growth inhibition of human RPMI8226 cells at 10 uM after 48 hrs by coulter counting; assay type: functional
Active and inactive are the calls of the source. The calls are words filed in the database; no cut-off is given here.

| compound | growth inhibition (GI) |
| --- | --- |
| CCN1CC2=C(N=C3SC=C(C)N3C2c2ccc(OC)c(OC)c2)/C(=C/c2ccc(OC)c(OC)c2)C1 (centres undefined) | Active |
| CCN1CC2=C(N=C3SC=CN3C2c2ccc(OC)c(OC)c2)/C(=C/c2ccc(OC)c(OC)c2)C1 (centres undefined) | Active |
| COc1cc(/C=C2\CCCC3=C2N=C2SC=CN2C3c2cc(OC)c(OC)c(OC)c2)cc(OC)c1OC (centres undefined) | Active |
| CCN1CC2=C(N=C3SC=CN3C2c2ccc(OC)cc2)/C(=C/c2ccc(OC)cc2)C1 (centres undefined) | Active |

###

test system: SK-MEL-5; experiment: Growth inhibition of human SK-MEL-5 cells at 10 uM after 48 hrs by coulter counting; format: functional; settings: SK-MEL-5, 48 h, read-out: GI

| compound | inhibition of growth at 10 µM |
| --- | --- |
| CCN1CC2=C(N=C3SC=CN3C2c2cccs2)/C(=C/c2cccs2)C1 (stereo not given) | > 10% |
| CCN1CC2=C(N=C3SC=C(C)N3C2c2ccc(OC)c(OC)c2)/C(=C/c2ccc(OC)c(OC)c2)C1 (stereo not given) | 87.2% |
| CCN1CC2=C(N=C3SC=C(C)N3C2c2cccs2)/C(=C/c2cccs2)C1 (stereo not given) | > 10% |
| COc1ccc(/C=C2\CCCC3=C2N=C2SC=C(C)N2C3c2ccc(OC)cc2)cc1 (stereo not given) | > 10% |
| COc1ccc(/C=C2\CCCC3=C2N=C2SC=CN2C3c2ccc(OC)cc2)cc1 (stereo not given) | > 10% |

###

assay: Cytotoxicity against human CNS cancer cells after 48 hrs by coulter counting; format: functional; settings: Cancer cell lines
Listed below: TGI values for each entry.
measured.property: TGI

| compound | experimental.result |
| --- | --- |
| CCN1CC2=C(N=C3SC=CN3C2c2ccc(OC)c(OC)c2)/C(=C/c2ccc(OC)c(OC)c2)C1 (stereo not given) | 26.7 µM |
| CCN1CC2=C(N=C3SC=CN3C2c2ccc(OC)cc2)/C(=C/c2ccc(OC)cc2)C1 (stereo not given) | 9.4 µM |
| COc1cc(/C=C2\CCCC3=C2N=C2SC=CN2C3c2cc(OC)c(OC)c(OC)c2)cc(OC)c1OC (stereo not given) | > 100 µM |
| O=c1[nH]cc(F)c(=O)[nH]1 [FLUOROURACIL] | > 100 µM |
| CCN1CC2=C(N=C3SC=C(C)N3C2c2ccc(OC)c(OC)c2)/C(=C/c2ccc(OC)c(OC)c2)C1 (stereo not given) | 40.1 µM |

###

test: Cytotoxicity against human CNS cancer cells after 48 hrs by coulter counting; format: functional; conditions: Cancer cell lines
# maps each entry to its LC50

| compound | LC50 |
| --- | --- |
| CCN1CC2=C(N=C3SC=CN3C2c2ccc(OC)cc2)/C(=C/c2ccc(OC)cc2)C1 (centres undefined) | 68.2 µM |
| COc1cc(/C=C2\CCCC3=C2N=C2SC=CN2C3c2cc(OC)c(OC)c(OC)c2)cc(OC)c1OC (centres undefined) | > 100 µM |
| CCN1CC2=C(N=C3SC=CN3C2c2ccc(OC)c(OC)c2)/C(=C/c2ccc(OC)c(OC)c2)C1 (centres undefined) | 82.8 µM |
| CCN1CC2=C(N=C3SC=C(C)N3C2c2ccc(OC)c(OC)c2)/C(=C/c2ccc(OC)c(OC)c2)C1 (centres undefined) | > 100 µM |

###

test system: OVCAR-8; assay: Growth inhibition of human OVCAR8 cells at 10 uM after 48 hrs by coulter counting; format: functional; details: OVCAR-8, 48 h, read-out: GI

| compound | target.under.test | result.modifier | inhibition of growth at 10 µM, % |
| --- | --- | --- | --- |
| CCN1CC2=C(N=C3SC=CN3C2c2cccs2)/C(=C/c2cccs2)C1 (stereo not given) | OVCAR-8 | > | 10 |
| CCN1CC2=C(N=C3SC=C(C)N3C2c2ccc(OC)cc2)/C(=C/c2ccc(OC)cc2)C1 (stereo not given) | OVCAR-8 | > | 10 |
| CCN1CC2=C(N=C3SC=C(C)N3C2c2cccs2)/C(=C/c2cccs2)C1 (stereo not given) | OVCAR-8 | > | 10 |
| CCN1CC2=C(N=C3SC=C(C)N3C2c2ccc(OC)c(OC)c2)/C(=C/c2ccc(OC)c(OC)c2)C1 (stereo not given) | OVCAR-8 | = | 96.5 |
| CCN1CC2=C(N=C3SC=CN3C2c2ccc(OC)c(OC)c2)/C(=C/c2ccc(OC)c(OC)c2)C1 (stereo not given) | OVCAR-8 | = | 95.9 |

###

Recorded inhibition of growth at 10 µM by entry
tested on: SK-MEL-28; assay: Growth inhibition of human SK-MEL-28 cells at 10 uM after 48 hrs by coulter counting; type: functional; conditions: SK-MEL-28, 48 h, read-out: GI

| compound | target.under.test | inhibition of growth at 10 µM |
| --- | --- | --- |
| CC1=CSC2=NC3=C(CCC/C3=C\c3cccs3)C(c3cccs3)N12 (stereo unspecified) | SK-MEL-28 | > 10% |
| CCN1CC2=C(N=C3SC=CN3C2c2ccc(OC)c(OC)c2)/C(=C/c2ccc(OC)c(OC)c2)C1 (stereo unspecified) | SK-MEL-28 | 61.3% |
| COc1cc(/C=C2\CCCC3=C2N=C2SC=C(C)N2C3c2cc(OC)c(OC)c(OC)c2)cc(OC)c1OC (stereo unspecified) | SK-MEL-28 | > 10% |
| COc1cc(/C=C2\CCCC3=C2N=C2SC=CN2C3c2cc(OC)c(OC)c(OC)c2)cc(OC)c1OC (stereo unspecified) | SK-MEL-28 | 89.7% |
| CC1=CSC2=NC3=C(CCC/C3=C\c3ccccc3)C(c3ccccc3)N12 (stereo unspecified) | SK-MEL-28 | > 10% |
| C1=CN2C(=NC3=C(CCC/C3=C\c3ccccc3)C2c2ccccc2)S1 (stereo unspecified) | SK-MEL-28 | > 10% |
| COc1ccc(/C=C2\CCCC3=C2N=C2SC=CN2C3c2ccc(OC)cc2)cc1 (stereo unspecified) | SK-MEL-28 | > 10% |
| CCN1CC2=C(N=C3SC=CN3C2c2ccc(OC)cc2)/C(=C/c2ccc(OC)cc2)C1 (stereo unspecified) | SK-MEL-28 | 10.9% |
| CCN1CC2=C(N=C3SC=CN3C2c2cccs2)/C(=C/c2cccs2)C1 (stereo unspecified) | SK-MEL-28 | > 10% |
| CCN1CC2=C(N=C3SC=C(C)N3C2c2ccc(OC)cc2)/C(=C/c2ccc(OC)cc2)C1 (stereo unspecified) | SK-MEL-28 | > 10% |
| CCN1CC2=C(N=C3SC=C(C)N3C2c2ccc(OC)c(OC)c2)/C(=C/c2ccc(OC)c(OC)c2)C1 (stereo unspecified) | SK-MEL-28 | 96.5% |
| C1=CN2C(=NC3=C(CCC/C3=C\c3cccs3)C2c2cccs2)S1 (stereo unspecified) | SK-MEL-28 | > 10% |
| COc1ccc(/C=C2\CCCC3=C2N=C2SC=C(C)N2C3c2ccc(OC)cc2)cc1 (stereo unspecified) | SK-MEL-28 | > 10% |
| COc1ccc(/C=C2\CCCC3=C2N=C2SC=C(C)N2C3c2ccc(OC)c(OC)c2)cc1OC (stereo unspecified) | SK-MEL-28 | > 10% |
| CCN1CC2=C(N=C3SC=C(C)N3C2c2cccs2)/C(=C/c2cccs2)C1 (stereo unspecified) | SK-MEL-28 | > 10% |
| COc1ccc(/C=C2\CCCC3=C2N=C2SC=CN2C3c2ccc(OC)c(OC)c2)cc1OC (stereo unspecified) | SK-MEL-28 | > 10% |
